Some molecules, each annotated with its measured growth.
System: UACC-257 melanoma
Test: NCI-60 one-dose screen, 48 h (100 = growth as untreated, 0 = no growth, -100 = all killed)
Conditions: 10 µM unless noted
About 83,000 compounds went through this panel and 20% of them were active in at least one assay; those are over-represented in the sample as a whole.
// note: answer is a bare numeric in %

Some solved cases for reference:
[[record]]
molecule = "Cc1ccc(-c2nc(N3CCCNCC3)c3oc(-c4ccc(C)cc4)nc3n2)cc1"
value = 101

[[record]]
molecule = "CN(/C(N)=N/N=C/c1c2ccccc2cc2ccccc12)C1CCCCC1"
value = 64.3

[[record]]
molecule = "O=C(/C=C(/C=C/c1ccc2[nH]ccc2c1)OB(F)F)/C=C/c1ccc2[nH]ccc2c1"
value = 43.3

[[record]]
molecule = "c1ccc(-c2oc(-c3ccccc3)c(CN3CCCCC3)c2CN2CCCCC2)cc1"
value = 15.8

[[record]]
molecule = "Cc1cn(-c2cc(NC(=O)c3cccc(C#Cc4cccc5[nH]nc(N)c45)c3)cc(C(F)(F)F)c2)cn1"
value = 41.4

[[record]]
molecule = "COc1ccc(C(O)c2cc3c(N)c(C(=O)Nc4cccc(Br)c4)sc3nc2C)cc1 (centres undefined)"
value = 45.7

[[record]]
molecule = "CN1CCN(c2cc(Nc3cc(C4CC4)[nH]n3)nc(Nc3ccc(CC(=O)NCc4cccc(F)c4)cc3)n2)CC1"
value = 40.9

[[record]]
molecule = "NS(=O)(=O)c1ccccc1NC(=O)Nc1nc2ccccc2s1"
value = 102


Prompt: State, in one line, measured growth of Cc1ccccc1/C=C/C(=O)c1cccc(OCCCCOc2cccc(C(=O)/C=C/c3ccccc3C)c2)c1
Completion: 92.2

Each recorded value in this set is attributed to PubChem BioAssay (NCI).
